Molecular target: panel of more than 300 wild-type and mutant kinases (313 kinase panel) (Homo sapiens)
Test: Kinase profiling in a biochemical assay panel (mobility shift assays and ELISA), %-inhibition at 1 μM; selectivity entropy
Conditions: kinase SYK; 1 μM
measurement.type: %-inhibition of SYK (%)
Numbers only, in %.

Before answering, review these 7 worked examples.
1. CNC(=O)c1cc(Oc2ccc(NC(=O)Nc3ccc(Cl)c(C(F)(F)F)c3)c(F)c2)ccn1 : 3.55
2. O=S(=O)(c1cccc2cnccc12)N1CCCNCC1 : 6
3. Cc1ccc(C(=O)Nc2ccc(CN3CCN(C)CC3)c(C(F)(F)F)c2)cc1C#Cc1cnc2cccnn12 : 10
4. CC(C)(C)c1nc(-c2cccc(NS(=O)(=O)c3c(F)cccc3F)c2F)c(-c2ccnc(N)n2)s1 : 37
5. COc1cc2c(Nc3ccc(Br)cc3F)ncnc2cc1OCC1CCN(C)CC1 : 27
6. CC(=O)Nc1cccc(-n2c(=O)n(C3CC3)c(=O)c3c(Nc4ccc(I)cc4F)n(C)c(=O)c(C)c32)c1 : -5
7. CCCS(=O)(=O)Nc1ccc(F)c(C(=O)c2c[nH]c3ncc(-c4ccc(Cl)cc4)cc23)c1F : -3.77

Can you share its %-inhibition of SYK? I mean this compound: "CO[C@H]1C[C@@H]2CC[C@@H](C)[C@@](O)(O2)C(=O)C(=O)N2CCCC[C@H]2C(=O)O[C@H]([C@H](C)C[C@@H]2CC[C@@H](OC(=O)C(C)(CO)CO)[C@H](OC)C2)CC(=O)[C@H](C)/C=C(\C)[C@@H](O)[C@@H](OC)C(=O)[C@H](C)C[C@H](C)/C=C/C=C/C=C/1C"
-13
